Give measured normalised inhibition (eCFP-eYFP dual reporter) for each item. Keep answers brief.
Target: Mmp7 (rat); note: test concentration or dose not given here
Experiment: reporter assay of Huesken 2005
Conditions: siRNA
Oligonucleotides are given in HELM: sugar(base)linkage, 5' to 3'; d 2'-deoxyribose, r ribose, m 2'-O-methylribose, p phosphate. ss, as = sense and antisense strand
Give bare numbers, in %.

Some solved entries appear below for comparison.
# substance, value observed
measured = [
    ("RNA1{r(A)p.r(A)p.r(G)p.r(C)p.r(C)p.r(C)p.r(A)p.r(G)p.r(G)p.r(U)p.r(G)p.r(U)p.r(G)p.r(G)p.r(A)p.r(G)p.r(U)p.r(G)p.r(C)p.d(T)p.d(T)}|RNA2{r(G)p.r(C)p.r(A)p.r(C)p.r(U)p.r(C)p.r(C)p.r(A)p.r(C)p.r(A)p.r(C)p.r(C)p.r(U)p.r(G)p.r(G)p.r(G)p.r(C)p.r(U)p.r(U)p.d(C)p.d(T)}$$$RNA1{StrandType:ss}|RNA2{StrandType:as}$", 47.5),
    ("RNA1{r(A)p.r(A)p.r(A)p.r(U)p.r(U)p.r(U)p.r(U)p.r(A)p.r(C)p.r(C)p.r(U)p.r(U)p.r(C)p.r(A)p.r(C)p.r(G)p.r(A)p.r(C)p.r(U)p.d(T)p.d(T)}|RNA2{r(A)p.r(G)p.r(U)p.r(C)p.r(G)p.r(U)p.r(G)p.r(A)p.r(A)p.r(G)p.r(G)p.r(U)p.r(A)p.r(A)p.r(A)p.r(A)p.r(U)p.r(U)p.r(U)p.d(C)p.d(C)}$$$RNA1{StrandType:ss}|RNA2{StrandType:as}$", 74.4),
    ("RNA1{r(U)p.r(A)p.r(C)p.r(U)p.r(G)p.r(G)p.r(A)p.r(C)p.r(G)p.r(G)p.r(A)p.r(U)p.r(G)p.r(G)p.r(U)p.r(G)p.r(A)p.r(G)p.r(G)p.d(T)p.d(T)}|RNA2{r(C)p.r(C)p.r(U)p.r(C)p.r(A)p.r(C)p.r(C)p.r(A)p.r(U)p.r(C)p.r(C)p.r(G)p.r(U)p.r(C)p.r(C)p.r(A)p.r(G)p.r(U)p.r(A)p.d(C)p.d(T)}$$$RNA1{StrandType:ss}|RNA2{StrandType:as}$", 32.6),
    ("RNA1{r(U)p.r(C)p.r(U)p.r(G)p.r(U)p.r(U)p.r(C)p.r(C)p.r(C)p.r(A)p.r(G)p.r(U)p.r(U)p.r(C)p.r(U)p.r(G)p.r(U)p.r(G)p.r(A)p.d(T)p.d(T)}|RNA2{r(U)p.r(C)p.r(A)p.r(C)p.r(A)p.r(G)p.r(A)p.r(A)p.r(C)p.r(U)p.r(G)p.r(G)p.r(G)p.r(A)p.r(A)p.r(C)p.r(A)p.r(G)p.r(A)p.d(A)p.d(G)}$$$RNA1{StrandType:ss}|RNA2{StrandType:as}$", 99.6),
    ("RNA1{r(G)p.r(C)p.r(C)p.r(A)p.r(C)p.r(U)p.r(C)p.r(U)p.r(C)p.r(U)p.r(G)p.r(G)p.r(G)p.r(U)p.r(C)p.r(U)p.r(G)p.r(G)p.r(G)p.d(T)p.d(T)}|RNA2{r(C)p.r(C)p.r(C)p.r(A)p.r(G)p.r(A)p.r(C)p.r(C)p.r(C)p.r(A)p.r(G)p.r(A)p.r(G)p.r(A)p.r(G)p.r(U)p.r(G)p.r(G)p.r(C)p.d(C)p.d(A)}$$$RNA1{StrandType:ss}|RNA2{StrandType:as}$", 63.3),
]

Hi there! I need normalised inhibition (eCFP-eYFP dual reporter) for each item below, if you can.
1. RNA1{r(G)p.r(U)p.r(U)p.r(G)p.r(C)p.r(A)p.r(G)p.r(A)p.r(A)p.r(U)p.r(U)p.r(C)p.r(U)p.r(C)p.r(A)p.r(C)p.r(U)p.r(A)p.r(A)p.d(T)p.d(T)}|RNA2{r(U)p.r(U)p.r(A)p.r(G)p.r(U)p.r(G)p.r(A)p.r(G)p.r(A)p.r(A)p.r(U)p.r(U)p.r(C)p.r(U)p.r(G)p.r(C)p.r(A)p.r(A)p.r(C)p.d(A)p.d(T)}$$$RNA1{StrandType:ss}|RNA2{StrandType:as}$
2. RNA1{r(A)p.r(G)p.r(G)p.r(C)p.r(G)p.r(C)p.r(A)p.r(G)p.r(A)p.r(A)p.r(U)p.r(U)p.r(A)p.r(U)p.r(C)p.r(U)p.r(U)p.r(A)p.r(G)p.d(T)p.d(T)}|RNA2{r(C)p.r(U)p.r(A)p.r(A)p.r(G)p.r(A)p.r(U)p.r(A)p.r(A)p.r(U)p.r(U)p.r(C)p.r(U)p.r(G)p.r(C)p.r(G)p.r(C)p.r(C)p.r(U)p.d(G)p.d(T)}$$$RNA1{StrandType:ss}|RNA2{StrandType:as}$
3. RNA1{r(A)p.r(U)p.r(U)p.r(U)p.r(G)p.r(A)p.r(U)p.r(G)p.r(G)p.r(G)p.r(C)p.r(C)p.r(A)p.r(G)p.r(G)p.r(A)p.r(A)p.r(A)p.r(C)p.d(T)p.d(T)}|RNA2{r(G)p.r(U)p.r(U)p.r(U)p.r(C)p.r(C)p.r(U)p.r(G)p.r(G)p.r(C)p.r(C)p.r(C)p.r(A)p.r(U)p.r(C)p.r(A)p.r(A)p.r(A)p.r(U)p.d(G)p.d(G)}$$$RNA1{StrandType:ss}|RNA2{StrandType:as}$
4. RNA1{r(C)p.r(C)p.r(G)p.r(G)p.r(A)p.r(G)p.r(A)p.r(A)p.r(G)p.r(U)p.r(G)p.r(A)p.r(C)p.r(C)p.r(G)p.r(C)p.r(A)p.r(C)p.r(U)p.d(T)p.d(T)}|RNA2{r(A)p.r(G)p.r(U)p.r(G)p.r(C)p.r(G)p.r(G)p.r(U)p.r(C)p.r(A)p.r(C)p.r(U)p.r(U)p.r(C)p.r(U)p.r(C)p.r(C)p.r(G)p.r(G)p.d(C)p.d(T)}$$$RNA1{StrandType:ss}|RNA2{StrandType:as}$
5. RNA1{r(U)p.r(G)p.r(G)p.r(A)p.r(C)p.r(G)p.r(G)p.r(A)p.r(U)p.r(G)p.r(G)p.r(U)p.r(G)p.r(A)p.r(G)p.r(G)p.r(A)p.r(C)p.r(U)p.d(T)p.d(T)}|RNA2{r(A)p.r(G)p.r(U)p.r(C)p.r(C)p.r(U)p.r(C)p.r(A)p.r(C)p.r(C)p.r(A)p.r(U)p.r(C)p.r(C)p.r(G)p.r(U)p.r(C)p.r(C)p.r(A)p.d(G)p.d(T)}$$$RNA1{StrandType:ss}|RNA2{StrandType:as}$

[122, 66, 10.5, 94.4, 52.5]

Data origin: the OligoGym collection
